system: galium (catchweed bedstraw, Galium aparine); assay: Test C postemergence, galium; type: in vivo; conditions: 31 g ai/ha Postemergence; visual injury, 0 to 100 scale (0 no effect, 100 complete control)
Text: […]
Could you please mark true for values of Galium plant response rating below 80 and false for values at or above it?

compound="Cc1c(NS(=O)(=O)C(F)(F)F)cc(N2CCCC(OC3CC3)C2=O)c(C)c1F (stereo not drawn)" group=true
compound=C#CCO/N=C1\CCN(c2cc(NS(=O)(=O)C(F)(F)F)c(C)cc2C)C1=O group=false
compound="Cc1c(NS(=O)(=O)C(F)(F)F)cc(N2CCCC(OC3CCC3)C2=O)c(C)c1F (stereo not drawn)" group=true
compound="Cc1cc(C)c(N2CCC(OCC3CCCC3)C2=O)cc1NS(=O)(=O)C(F)(F)F (stereo not drawn)" group=true
compound="Cc1cc(C)c(N2CCC(OCC3CCC3(F)F)C2=O)cc1NS(=O)(=O)C(F)(F)F (stereo not drawn)" group=true
compound="Cc1cc(C)c(N2CCC(OCc3ccccc3)C2=O)cc1NS(=O)(=O)C(F)(F)F (stereo not drawn)" group=true
compound=Cc1cc(C)c(N2CC/C(=N\O)C2=O)cc1NS(=O)(=O)C(F)(F)F group=false
compound="Cc1c(N2CCCC(OC3CC3)C2=O)cc(N(COC(=O)C(C)(C)C)S(=O)(=O)C(F)(F)F)c(C)c1F (stereo not drawn)" group=true
compound="Cc1c(N2CCC(OC3CCC3)C2=O)cc(N(COC(=O)C(C)(C)C)S(=O)(=O)C(F)(F)F)c(C)c1C (stereo not drawn)" group=true
